assay: Inhibition of collagen binding to integrin alpha-2-beta-1 by ELISA; design: species or system Homo sapiens
pIC50: −log10 of the molar value.
propertyLabel: pIC50

Known pIC50 results, listed for orientation:
substanceSmiles | pIC50
CC(C)(C)c1cc(NC(=O)c2cccc(C(=O)Nc3cc(C(C)(C)C)cc(NC(=O)[C@@H](N)Cc4ccc5ccccc5c4)c3SCCN)c2)c(SCCN)c(NC(=O)[C@@H](N)Cc2ccc3ccccc3c2)c1 | 5.32
CC(C)(C)c1cc(NC(=O)CN)c(SCCN)c(NC(=O)c2cccc(C(=O)Nc3cc(C(C)(C)C)cc(NC(=O)CN)c3SCCN)c2)c1 | < 4.30
C[C@@H](N)C(=O)Nc1cc(C(C)(C)C)cc(NC(=O)c2cccc(C(=O)Nc3cc(C(C)(C)C)cc(NC(=O)[C@@H](C)N)c3SCCN)c2)c1SCCN | < 4.30
NCCSc1c(NC(=O)c2cccc(C(=O)Nc3cccc(NC(=O)[C@@H](N)Cc4ccc5ccccc5c4)c3SCCN)c2)cccc1NC(=O)[C@@H](N)Cc1ccc2ccccc2c1 | 5.21
NCCOc1cc(C(=O)Nc2cccc(NC(=O)[C@H](N)Cc3ccccc3)c2SCCN)cc(C(=O)Nc2cccc(NC(=O)[C@H](N)Cc3ccccc3)c2SCCN)c1 | < 4.30
NCCSc1c(N)cccc1NC(=O)c1cccc(C(=O)Nc2cccc(NC(=O)[C@H](N)Cc3ccc4ccccc4c3)c2SCCN)c1 | < 4.30
CC(C)(C)c1cc(NC(=O)CCCN)c(SCCN)c(NC(=O)c2cccc(C(=O)Nc3cc(C(C)(C)C)cc(NC(=O)CCCN)c3SCCN)c2)c1 | < 4.30
NCCSc1c(N)cccc1NC(=O)c1cccc(C(=O)Nc2cccc(NC(=O)[C@H](N)Cc3cccnc3)c2SCCN)c1 | < 4.30

Recorded pIC50 of "NCCSc1c(N)cccc1NC(=O)c1cccc(C(=O)Nc2cccc(NC(=O)[C@@H](N)Cc3ccc4ccccc4c3)c2SCCN)c1" , please. < 4.30

Recorded pIC50 of "CC(C)(C)c1cc(NC(=O)c2cccc(C(=O)Nc3cc(C(C)(C)C)cc(NC(=O)[C@H](N)Cc4c[nH]c5ccccc45)c3SCCN)c2)c(SCCN)c(NC(=O)[C@H](N)Cc2c[nH]c3ccccc23)c1" , please. < 4.70

Recorded pIC50 of "NCCSc1c(NC(=O)c2cccc(C(=O)Nc3cccc(NC(=O)[C@H](N)Cc4ccc5ccccc5c4)c3SCCN)c2)cccc1NC(=O)[C@H](N)Cc1ccc2ccccc2c1" , please. 4.71

Recorded pIC50 of "CC(C)(C)c1cc(NC(=O)c2cccc(C(=O)Nc3cc(C(C)(C)C)cc(NC(=O)[C@H](N)Cc4ccc5ccccc5c4)c3SCCN)c2)c(SCCN)c(NC(=O)[C@H](N)Cc2ccc3ccccc3c2)c1" , please. < 4.70

* * *

assay: Inhibition of collagen binding to integrin alpha-2-beta-1 by ELISA; design: species or system Homo sapiens
pIC50: −log10 of the molar value.
Recorded pIC50 values for a group of molecules are listed next.

Recorded pIC50 of "CC(C)(C)c1cc(NC(=O)c2cccc(C(=O)Nc3cc(C(C)(C)C)cc(NC(=O)[C@@H](N)CCCN=C(N)N)c3SCCN)c2)c(SCCN)c(NC(=O)[C@@H](N)CCCN=C(N)N)c1" , please. < 4.30

Recorded pIC50 of "CC(C)(C)c1cc(NC(=O)c2cccc(C(=O)Nc3cc(C(C)(C)C)cc(NC(=O)[C@H](N)Cc4cccnc4)c3SCCN)c2)c(SCCN)c(NC(=O)[C@H](N)Cc2cccnc2)c1" , please. < 4.30

Recorded pIC50 of "CC(C)(C)c1ccc(SCCN)c(NC(=O)c2cc(C(=O)Nc3cc(C(C)(C)C)ccc3SCCN)c(OCCN)cc2OCCN)c1" , please. < 4.30
